Numbers sourced from ChEMBL document CHEMBL1156018.

inhibition values by entry
Species on record: Rattus norvegicus
experimental_details: Displacement of [3H]di-o-tolylguanidine from sigma 2 receptor in rat liver at 1 uM after 180 mins by scintillation counting

compound	result_value
CO[C@H]1Cc2ccccc2[C@]2(CCCN(CCc3ccccc3)C2)O1 (relative stereo)	13%
CO[C@H]1Cc2ccccc2[C@]2(CCCN(Cc3ccccc3)C2)O1	0%
CCCCN1CCC[C@]2(C1)O[C@H](OC)Cc1ccccc12 (relative stereo)	0%

Consider the record given below.
Recorded result, CCCCN1CCC[C@]2(C1)O[C@@H](OC)Cc1ccccc12 (relative stereo) , inhibition: 0%

###

experimental_details: Displacement of [3H]di-o-tolylguanidine from sigma 2 receptor in rat liver after 180 mins by scintillation counting
pKi values by entry
Entry type: numeric. Quantity: pKi, the -log10 of concentration in molar units.

compound	pKi
CO[C@@H]1Cc2ccccc2[C@]2(CCCN(CCCc3ccccc3)C2)O1 (relative stereo)	5.95
CO[C@H]1Cc2ccccc2[C@]2(CCCN(CCCc3ccccc3)C2)O1 (relative stereo)	5.53
CO[C@@H]1Cc2ccccc2[C@]2(CCCN(CCCCc3ccccc3)C2)O1 (relative stereo)	5.89

Consider the record given below.
Recorded result, CO[C@@H]1Cc2ccccc2[C@]2(CCCN(CCc3ccccc3)C2)O1 (relative stereo) , pKi: 5.84

###

experimental_details: Displacement of [3H]di-o-tolylguanidine from sigma 2 receptor in rat liver after 180 mins by scintillation counting
Mark met only for Ki values smaller than 2000 nM; exact matches and larger values are not met.

Reference set (4 entries):
compound	class_label
CCCCCCCCN1CCC2(CC1)OC(OC)Cc1ccccc12 (stereo not given)	met
CCCCCCCCCCN1CCC[C@]2(C1)O[C@@H](OC)Cc1ccccc12 (relative stereo)	not met
CCCCCCN1CCC[C@]2(C1)O[C@H](OC)Cc1ccccc12 (relative stereo)	met
CO[C@@H]1Cc2ccccc2[C@]2(CCCN(Cc3ccccc3)C2)O1 (relative stereo)	met

Could you please tell me whether Ki recorded for CCCCN1CCC2(CC1)OC(OC)Cc1ccccc12 (stereo not given) is less than 2000 nM?
met

###

experimental_details: Selectivity ratio of Ki for guinea pig brain sigma 1 receptor to Ki for rat liver sigma 2 receptor
Ratio Ki values by entry
Give the figure by itself; no unit, no explanation.

# annotated cases, reported Ratio Ki shown
compound	Ratio Ki
CO[C@H]1Cc2ccccc2[C@]2(CCCN(CCCc3ccccc3)C2)O1 (relative stereo)	2.4
CCCCCCCCN1CCC[C@]2(C1)O[C@H](OC)Cc1ccccc12 (relative stereo)	0.5
CCCCCCN1CCC[C@]2(C1)O[C@@H](OC)Cc1ccccc12 (relative stereo)	7.7
CO[C@@H]1Cc2ccccc2[C@]2(CCCN(CCCc3ccccc3)C2)O1 (relative stereo)	3
CO[C@H]1Cc2ccccc2[C@]2(CCCN(CCCCc3ccccc3)C2)O1 (relative stereo)	1.1
CCCCCCCCN1CCC2(CC1)OC(OC)Cc1ccccc12 (centres undefined)	55

Recorded result, CCCCCCCCN1CCC[C@]2(C1)O[C@@H](OC)Cc1ccccc12 (relative stereo) , Ratio Ki: 6.8

Recorded result, CCCCCCCCCCN1CCC[C@]2(C1)O[C@@H](OC)Cc1ccccc12 (relative stereo) , Ratio Ki: 2.5

Recorded result, CCCCN1CCC2(CC1)OC(OC)Cc1ccccc12 (centres undefined) , Ratio Ki: 443

Recorded result, CCCCCCCCCCN1CCC[C@]2(C1)O[C@H](OC)Cc1ccccc12 (relative stereo) , Ratio Ki: 0.9

Recorded result, CCCCCCN1CCC[C@]2(C1)O[C@H](OC)Cc1ccccc12 (relative stereo) , Ratio Ki: 5.1

Recorded result, CO[C@@H]1Cc2ccccc2[C@]2(CCCN(Cc3ccccc3)C2)O1 (relative stereo) , Ratio Ki: 1.3

Recorded result, CO[C@@H]1Cc2ccccc2[C@]2(CCCN(CCc3ccccc3)C2)O1 (relative stereo) , Ratio Ki: 2

Recorded result, CO[C@@H]1Cc2ccccc2[C@]2(CCCN(CCCCc3ccccc3)C2)O1 (relative stereo) , Ratio Ki: 3.3
